Kindly state kon for each of the entries shown.
Biological target: T1, recombinant human BCMA Fc(kih) (human, UniProt Q02223 4-53, site-specifically biotinylated at the C-terminal avi-tag ; Biotin on the avi-tag at the C-terminus of the Fc knob chain (tag and Fc left out).)
T1 construct: Knobs-into-holes heterodimer carrying one BCMA ectodomain; also called huBCMA Fc(kih); huBCMA; not shown: human IgG1 hinge-Fc knob chain with C-terminal avi-tag, and the unfused Fc hole chain
T1 chain: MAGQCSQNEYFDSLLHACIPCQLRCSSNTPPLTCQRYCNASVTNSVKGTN
Test: SPR (Biacore T200), IgG captured via anti-human Fab, BCMA Fc(kih) as analyte, 1:1 Langmuir fit
Numeric only. Scale: M⁻¹ s⁻¹

Please fill in: kon reported for Mab 42 IgG (antibody, V domains shown, also called antibody 42; clone 42) VH: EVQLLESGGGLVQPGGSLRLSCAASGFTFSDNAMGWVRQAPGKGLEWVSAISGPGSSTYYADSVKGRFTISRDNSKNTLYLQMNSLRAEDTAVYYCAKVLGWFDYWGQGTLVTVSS VL: EIVLTQSPGTLSLSPGERATLSCRASQSVSDEYLSWYQQKPGQAPRLLIHSASTRATGIPDRFSGSGSGTDFTLAISRLEPEDFAVYYCQQYGYPPDFTFGQGTKVEIK = 803000

Please fill in: kon reported for Mab 39 IgG (antibody, V domains shown) VH: EVQLLESGGGLVQPGGSLRLSCAASGFTFTQNAMGWVRQAPGKGLEWVSAISPTGFSTYYADSVKGRFTISRDNSKNTLYLQMNSLRAEDTAVYYCAKVLGWFDYWGQGTLVTVSS VL: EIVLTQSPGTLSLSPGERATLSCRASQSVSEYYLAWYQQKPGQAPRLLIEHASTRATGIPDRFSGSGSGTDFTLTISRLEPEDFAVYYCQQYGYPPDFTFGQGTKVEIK = 361000

Please fill in: kon reported for Mab 21 IgG (antibody, V domains shown, also called antibody 21) VH: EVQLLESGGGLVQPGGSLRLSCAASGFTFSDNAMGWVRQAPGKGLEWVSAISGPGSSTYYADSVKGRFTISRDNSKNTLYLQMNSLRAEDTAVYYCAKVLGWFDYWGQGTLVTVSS VL: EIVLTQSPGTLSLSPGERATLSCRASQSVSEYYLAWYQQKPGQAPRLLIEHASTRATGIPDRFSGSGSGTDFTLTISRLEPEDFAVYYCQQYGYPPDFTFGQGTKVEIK = 851000

Please fill in: kon reported for Mab 33 IgG (antibody, V domains shown) VH: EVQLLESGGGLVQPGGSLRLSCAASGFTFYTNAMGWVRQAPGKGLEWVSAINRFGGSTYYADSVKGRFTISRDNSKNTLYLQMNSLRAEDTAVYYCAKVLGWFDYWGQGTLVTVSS VL: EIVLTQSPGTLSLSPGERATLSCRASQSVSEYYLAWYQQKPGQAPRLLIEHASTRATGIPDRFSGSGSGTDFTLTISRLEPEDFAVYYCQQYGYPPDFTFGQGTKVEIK = 200000

Please fill in: kon reported for Mab 22 IgG (antibody, V domains shown, also called antibody 22; clone 22) VH: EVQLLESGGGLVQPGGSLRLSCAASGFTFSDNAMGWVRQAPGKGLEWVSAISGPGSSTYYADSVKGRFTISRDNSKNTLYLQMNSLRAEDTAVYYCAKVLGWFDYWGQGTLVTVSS VL: EIVLTQSPGTLSLSPGERATLSCRASQSVSSYYLAWYQQKPGQAPRLLISGAGSRATGIPDRFSGSGSGTDFTLTISRLEPEDFAVYYCQQYGYPPDFTFGQGTKVEIK = 814000

Please fill in: kon reported for Mab 27 IgG (antibody, V domains shown) VH: EVQLLESGGGLVQPGGSLRLSCAASGFTFSSAPMGWVRQAPGKGLEWVSAISYIGHTYYADSVKGRFTISRDNSKNTLYLQMNSLRAEDTAVYYCAKVLGWFDYWGQGTLVTVSS VL: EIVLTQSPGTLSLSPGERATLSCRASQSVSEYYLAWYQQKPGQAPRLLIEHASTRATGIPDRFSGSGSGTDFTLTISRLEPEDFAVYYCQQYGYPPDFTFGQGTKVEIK = 359000
